Test: physchem
Format: physicochemical
Conditions: pH 1.6, fassgf or other biorelevant, thermodynamic from solid, Shake-flask solubility
Description: The solubilities of α and γ indomethacin were measured by the conventional shake-flask method in HCl (pH 1.6), FaSSGFblk, and FeSSIFblk. A detailed description of the methodology can be found in the Supporting Information on page S-2. Effect of particle morphology on the solubility values measured by the SPA method was assessed by the MatLab® regionprops toolbox. […] The drug concentration in the samples was determined using an Agilent High Performance Liquid […]
measured.metric: solubility (µg/mL)
Report as a plain number; the unit µg/mL is understood.

Summary for this compound, COc1ccc2c(c1)c(CC(=O)O)c(C)n2C(=O)c1ccc(Cl)cc1 [α form, indomethacin] : solubility is 0.5
